Biological target: P2X purinoceptor 7 (Homo sapiens) (UniProt Q99572)
Assay: Antagonist activity at human P2X7 receptor expressed in HEK293 cells assessed as inhibition of ATP-induced receptor pore formation at 1 uM by propidium iodide dye uptake based fluorescence analysis
Format: cell-based
Conditions: filed as antagonist
property.name: inhibition (%)

{"structure.notation": "CS(=O)(=O)c1ccc(-c2csc(C(=O)NCc3cn(-c4cc(Cl)ccn4)nn3)n2)cc1", "property.name": "inhibition", "reported.value": 40.9}
{"structure.notation": "CS(=O)(=O)c1ccc(-c2ncc(C(=O)NCc3cn(-c4cc(Cl)ccn4)nn3)s2)cc1", "property.name": "inhibition", "reported.value": 53.6}
{"structure.notation": "O=C(NCc1cn(-c2cc(Cl)ccn2)nn1)c1cnc(-c2cccc(NS(=O)(=O)C3CC3)c2)s1", "property.name": "inhibition", "reported.value": 62.5}

I = O=C(NCC1(N2CCN(c3ccccc3)CC2)CCOCC1)c1cccnc1Sc1ccccc1
II = CS(=O)(=O)c1ccc(-c2ncc(C(=O)NCc3cn(-c4cc(F)ccn4)nn3)s2)cc1
Q: Lower value of inhibition belongs to which: I or II ? # answer = label of selected item
Result: II

====

Molecular target: P2X purinoceptor 7 (Mus musculus)
Assay: Antagonist activity at mouse P2X7 receptor expressed in HEK293 cells assessed as inhibition of ATP-induced receptor pore formation by propidium iodide dye uptake based fluorescence analysis
Type: cell-based
property.name: IC50 (nM)

{"structure.notation": "CS(=O)(=O)c1ccc(-c2ccc(Cl)c(C(=O)NCc3cn(-c4cc(Cl)ccn4)nn3)c2)cc1", "reported.value": 99.1}

1 = CS(=O)(=O)Nc1ccc(-c2ncc(C(=O)NCc3cn(-c4cc(Cl)ccn4)nn3)s2)cc1
2 = CC(C)Cc1ccc(-c2ccc(Cl)c(C(=O)NCc3cn(-c4cc(Cl)ccn4)nn3)c2)cc1
Q: In the pair 1 and 2 , the larger recorded IC50 belongs to which? # answer = label of selected item
Result: 2
(2: 409 nM, 1: 93.3 nM)

====

Biological target: P2X purinoceptor 7 (Homo sapiens)
Assay: Antagonist activity at human P2X7 receptor expressed in HEK293 cells assessed as inhibition of ATP-induced receptor pore formation at 200 nM by propidium iodide dye uptake based fluorescence analysis
Type: cell-based
Conditions: filed as antagonist
property.name: inhibition (%)

Some solved entries appear below for comparison.
{"structure.notation": "Nc1ccc(-c2ncc(C(=O)NCc3cn(-c4cc(Cl)ccn4)nn3)s2)cc1", "property.name": "inhibition", "reported.value": 46.2}
{"structure.notation": "O=C(NCc1cn(-c2cc(Cl)ccn2)nn1)c1cnc(-c2cccc(NS(=O)(=O)N3CCOCC3)c2)s1", "property.name": "inhibition", "reported.value": 46.5}
{"structure.notation": "CS(=O)(=O)c1ccc(-c2nc(C(=O)NCc3cn(-c4cc(Cl)ccn4)nn3)cs2)cc1", "property.name": "inhibition", "reported.value": 42.1}
{"structure.notation": "O=C(NCc1cn(-c2cc(Cl)ccn2)nn1)c1cnc(-c2cccc(NS(=O)(=O)C3CC3)c2)s1", "property.name": "inhibition", "reported.value": 40}
{"structure.notation": "O=C(NCc1cn(-c2cc(Cl)ccn2)nn1)c1cnc(-c2ccc(NS(=O)(=O)N3CCOCC3)cc2)s1", "property.name": "inhibition", "reported.value": 55.2}
{"structure.notation": "CS(=O)(=O)c1ccc(-c2nc(C(=O)NCc3cn(-c4cc(Br)ccn4)nn3)cs2)cc1", "property.name": "inhibition", "reported.value": 92}

I = CS(=O)(=O)c1ccc(-c2ncc(C(=O)NCc3cn(-c4cc(Br)ccn4)nn3)s2)cc1
II = O=C(NCC1(N2CCN(c3ccccc3)CC2)CCOCC1)c1cccnc1Sc1ccccc1
Q: In the pair I and II , the larger recorded inhibition belongs to which? # answer = label of selected item
Result: II
(II: 93.8%, I: 56.9%)

====

Target: P2X purinoceptor 7 (Mus musculus) (UniProt Q9Z1M0)
Sequence (Q9Z1M0 whole entry): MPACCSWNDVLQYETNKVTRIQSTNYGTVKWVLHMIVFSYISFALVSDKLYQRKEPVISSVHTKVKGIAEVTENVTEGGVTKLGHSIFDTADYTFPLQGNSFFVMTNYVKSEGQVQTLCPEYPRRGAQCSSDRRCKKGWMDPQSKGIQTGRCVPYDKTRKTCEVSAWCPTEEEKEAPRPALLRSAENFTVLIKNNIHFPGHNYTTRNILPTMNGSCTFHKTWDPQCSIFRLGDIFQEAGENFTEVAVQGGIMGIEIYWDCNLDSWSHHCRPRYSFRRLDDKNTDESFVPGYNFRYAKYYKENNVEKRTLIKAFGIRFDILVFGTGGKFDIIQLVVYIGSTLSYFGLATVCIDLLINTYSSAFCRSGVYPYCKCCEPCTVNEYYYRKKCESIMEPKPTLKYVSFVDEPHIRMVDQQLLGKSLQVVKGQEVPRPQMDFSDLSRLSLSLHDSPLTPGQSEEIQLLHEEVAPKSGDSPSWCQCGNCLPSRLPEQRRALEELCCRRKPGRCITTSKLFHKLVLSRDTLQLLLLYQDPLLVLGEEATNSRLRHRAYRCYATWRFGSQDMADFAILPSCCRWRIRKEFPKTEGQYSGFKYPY
Assay: Antagonist activity at mouse P2X7 receptor expressed in HEK293 cells assessed as inhibition of ATP-induced receptor pore formation at 1 uM by propidium iodide dye uptake based fluorescence analysis
Format: cell-based
Conditions: filed as antagonist
property.name: inhibition (%)

Some solved entries appear below for comparison.
{"structure.notation": "CS(=O)(=O)c1ccc(-c2nc(C(=O)NCc3cn(-c4cc(Br)ccn4)nn3)cs2)cc1", "property.name": "inhibition", "reported.value": 107}
{"structure.notation": "CS(=O)(=O)Nc1ccc(-c2ncc(C(=O)NCc3cn(-c4cc(Cl)ccn4)nn3)s2)cc1", "property.name": "inhibition", "reported.value": 89.8}
{"structure.notation": "CC(C)S(=O)(=O)c1ccc(-c2ncc(C(=O)NCc3cn(-c4cc(Cl)ccn4)nn3)s2)cc1", "property.name": "inhibition", "reported.value": 92.6}
{"structure.notation": "O=C(NCc1cn(-c2cc(Cl)ccn2)nn1)c1cnc(-c2cccc(NS(=O)(=O)C3CC3)c2)s1", "property.name": "inhibition", "reported.value": 83.9}
{"structure.notation": "CS(=O)(=O)c1ccc(-c2ncc(C(=O)NCc3cn(-c4cc(Cl)ccn4)nn3)s2)cc1", "property.name": "inhibition", "reported.value": 100}

I = O=C(NCc1cn(-c2cc(Cl)ccn2)nn1)c1cnc(-c2ccc(NS(=O)(=O)N3CCOCC3)cc2)s1
II = CS(=O)(=O)Nc1ccc(-c2ccc(Cl)c(C(=O)NCc3cn(-c4cc(Cl)ccn4)nn3)c2)cc1
Q: Lower value of inhibition belongs to which: I or II ? # answer = label of selected item
Result: II

====

Molecular target: P2X purinoceptor 7 (Homo sapiens)
Assay: Antagonist activity at human P2X7 receptor
property.name: IC50 (nM)

{"compound": "O=C(NCc1ccc(Cl)cc1Cl)C1CCC(=O)N1c1ccoc1 (stereo not drawn)", "unit.abbrev": "nM", "IC50": 200}

P = O=C1C=C(n2cc(CCCl)nn2)C(=O)c2c(O)cccc21
Q = CC1=C(C(c2ccc(Cl)cc2)n2cc(COCc3ccco3)nn2)C(=O)c2ccccc2C1=O (stereo not drawn)
Q: Lower value of IC50 belongs to which: P or Q ? # answer = label of selected item
Result: Q
(Q: 103 nM, P: 1100 nM)

====

Molecular target: P2X purinoceptor 7 (Mus musculus) (UniProt Q9Z1M0)
Assay: Antagonist activity at mouse P2X7 receptor expressed in HEK293 cells assessed as inhibition of ATP-induced receptor pore formation at 200 nM by propidium iodide dye uptake based fluorescence analysis
Assay type: cell-based
Active and inactive are the calls of the source. The calls are words filed in the database; no cut-off is given here.
property.name: inhibition

Some solved entries appear below for comparison.
{"structure.notation": "O=C(NCc1cn(-c2cc(Cl)ccn2)nn1)c1cc(-c2cccc3[nH]ccc23)ccc1Cl", "inhibition": "inactive"}
{"structure.notation": "Cc1cc(F)ccc1-c1ccc(Cl)c(C(=O)NCc2cn(-c3cc(Cl)ccn3)nn2)c1", "inhibition": "17.8%"}
{"structure.notation": "CS(=O)(=O)Nc1cccc(-c2ncc(C(=O)NCc3cn(-c4cc(Cl)ccn4)nn3)s2)c1", "inhibition": "inactive"}
{"structure.notation": "CS(=O)(=O)c1cccc(-c2ncc(C(=O)NCc3cn(-c4cc(Cl)ccn4)nn3)s2)c1", "inhibition": "inactive"}
{"structure.notation": "CS(=O)(=O)Nc1ccc(-c2ccc(Cl)c(C(=O)NCc3cn(-c4cc(Cl)ccn4)nn3)c2)cc1", "inhibition": "inactive"}

Q: // lookup inhibition for CS(=O)(=O)c1ccc(-c2nc(C(=O)NCc3cn(-c4ccc(Br)cn4)nn3)cs2)cc1
Result: inactive

Q: // lookup inhibition for CS(=O)(=O)c1ccc(-c2ncc(C(=O)NCc3cn(-c4ccc(Br)cn4)nn3)s2)cc1
Result: inactive

Q: // lookup inhibition for CS(=O)(=O)c1ccc(-c2nc(C(=O)NCc3cn(-c4cc(F)ccn4)nn3)cs2)cc1
Result: 23.3%

Q: // lookup inhibition for CS(=O)(=O)c1cccc(-c2ccc(Cl)c(C(=O)NCc3cn(-c4cc(Cl)ccn4)nn3)c2)c1
Result: inactive

Q: // lookup inhibition for O=C(NCc1cn(-c2cc(Cl)ccn2)nn1)c1cc(-c2cccc3cc[nH]c23)ccc1Cl
Result: 25.6%

====

Target: P2X purinoceptor 7 (Homo sapiens) (UniProt Q99572)
Sequence (whole entry): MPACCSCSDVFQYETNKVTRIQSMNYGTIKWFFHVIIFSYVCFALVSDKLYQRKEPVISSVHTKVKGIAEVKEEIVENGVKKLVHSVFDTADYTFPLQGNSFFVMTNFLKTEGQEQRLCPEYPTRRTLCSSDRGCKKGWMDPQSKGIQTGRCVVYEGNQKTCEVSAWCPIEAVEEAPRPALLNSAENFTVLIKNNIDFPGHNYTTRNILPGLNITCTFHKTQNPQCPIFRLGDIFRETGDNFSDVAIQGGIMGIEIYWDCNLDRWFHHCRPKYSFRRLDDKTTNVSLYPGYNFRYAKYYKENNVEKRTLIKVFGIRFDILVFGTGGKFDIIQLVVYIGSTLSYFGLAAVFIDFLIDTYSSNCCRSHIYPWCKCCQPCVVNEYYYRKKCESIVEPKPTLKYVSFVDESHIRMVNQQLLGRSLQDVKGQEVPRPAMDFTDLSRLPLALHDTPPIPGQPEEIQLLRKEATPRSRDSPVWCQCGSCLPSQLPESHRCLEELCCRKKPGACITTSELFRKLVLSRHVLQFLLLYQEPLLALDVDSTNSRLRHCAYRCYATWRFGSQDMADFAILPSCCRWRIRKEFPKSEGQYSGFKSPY
Assay: Antagonist activity at human P2X7 receptor expressed in HEK293 cells assessed as inhibition of ATP-induced receptor pore formation at 1 uM by propidium iodide dye uptake based fluorescence analysis
Format: cell-based
Settings: filed as antagonist
property.name: inhibition (%)

{"structure.notation": "CS(=O)(=O)c1cccc(-c2ccc(Cl)c(C(=O)NCc3cn(-c4cc(Cl)ccn4)nn3)c2)c1", "unit.abbrev": "%", "reported.value": 41.9}
{"structure.notation": "CS(=O)(=O)Nc1cccc(-c2ccc(Cl)c(C(=O)NCc3cn(-c4cc(Cl)ccn4)nn3)c2)c1", "unit.abbrev": "%", "reported.value": 76.9}
{"structure.notation": "CS(=O)(=O)c1ccc(-c2nc(C(=O)NCc3cn(-c4ccc(Br)cn4)nn3)cs2)cc1", "unit.abbrev": "%", "reported.value": 51.6}
{"structure.notation": "CS(=O)(=O)c1ccc(-c2nc(C(=O)NCc3cn(-c4cc(Cl)ccn4)nn3)cs2)cc1", "unit.abbrev": "%", "reported.value": 68}
{"structure.notation": "CS(=O)(=O)c1ccc(-c2nc(C(=O)NCc3cn(-c4cccc(Br)n4)nn3)cs2)cc1", "unit.abbrev": "%", "reported.value": 53.8}
{"structure.notation": "CS(=O)(=O)c1ccc(-c2ncc(C(=O)NCc3cn(-c4cc(Br)ccn4)nn3)s2)cc1", "unit.abbrev": "%", "reported.value": 100}
{"structure.notation": "CS(=O)(=O)Nc1ccc(-c2ncc(C(=O)NCc3cn(-c4cc(Cl)ccn4)nn3)s2)cc1", "unit.abbrev": "%", "reported.value": 52.3}

P = CS(=O)(=O)c1ccc(-c2ccc(Cl)c(C(=O)NCc3cn(-c4cc(Cl)ccn4)nn3)c2)cc1
Q = O=C(NCc1cn(-c2cc(Cl)ccn2)nn1)c1cnc(-c2ccc(NS(=O)(=O)N3CCOCC3)cc2)s1
R = Nc1cccc(-c2ncc(C(=O)NCc3cn(-c4cc(Cl)ccn4)nn3)s2)c1
Q: Place the items in sequence of falling inhibition. Arrange the labels as the request states and list them.
Result: Q, R, P
